- assay.target: PIM1 (Homo sapiens (Human))
- Sequence (P11309 whole entry): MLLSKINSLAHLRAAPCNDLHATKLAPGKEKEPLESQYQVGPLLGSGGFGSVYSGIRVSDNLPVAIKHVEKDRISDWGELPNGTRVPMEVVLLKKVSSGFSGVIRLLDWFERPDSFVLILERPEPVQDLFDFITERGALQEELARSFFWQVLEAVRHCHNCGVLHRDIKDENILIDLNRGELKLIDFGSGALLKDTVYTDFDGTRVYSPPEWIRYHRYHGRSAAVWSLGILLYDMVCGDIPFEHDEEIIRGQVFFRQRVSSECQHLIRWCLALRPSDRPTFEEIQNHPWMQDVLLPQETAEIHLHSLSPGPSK
- assay.explanation: biochemical
- Format: biochemical
- condition.description: 20 pM PIM1, 1 μM FAM-peptide, 10 μM ATP, 90 minutes at room temperature; read-out: PIM1 LC3K (KI)
value.kind: Ki (nM)

// known answers, use as guide
                                   compound  unit_string    val
0  CO[C@H]1CO[C@H](c2c(NC(=O)c3csc(-c4c(F)ccc(F)c4F)n3)cnn2C)CC[C@H]1N [Example 258]           nM  0.145
1  Cn1ncc(NC(=O)c2ccc(F)c(-c3c(F)cc(OC4CCOCC4)cc3F)n2)c1[C@@H]1CC[C@@H](N)[C@H](F)CO1 [Example 197]           nM  0.018
2  Cn1ncc(NC(=O)c2nc(-c3c(F)ccc(F)c3F)sc2N)c1[C@@H]1CC[C@@H](N)[C@@H](F)CO1 [Example 260]           nM  0.004
3  COCCOc1cc(F)c(-c2nc(C(=O)Nc3cnn(C)c3[C@@H]3CC[C@@H](N)[C@H](F)CO3)ccc2F)c(F)c1 [Example 192]           nM  0.023
4  Cn1ncc(NC(=O)c2csc(-c3cccc(F)c3-c3cccc(F)c3Cl)n2)c1[C@@H]1CC[C@@H](N)[C@@H](F)CO1 [Example 251]           nM    630
5  Cn1ncc(NC(=O)c2nc(-c3c(F)cccc3F)sc2N)c1[C@H]1OC[C@@](C)(CN)CO1 [Example 178]           nM  0.155
6  Cc1sc(-c2c(F)cccc2F)nc1C(=O)Nc1cnn(C)c1[C@@H]1CC[C@@H](N)[C@H](F)CO1 [Example 370]           nM  0.382
7  Cn1ncc(NC(=O)c2csc(-c3c(F)ccc4[nH]ccc34)n2)c1[C@@H]1CC[C@@H](N)[C@H](F)CO1 [Example 400]           nM  0.011

(P) CO[C@@H]1CO[C@H](c2c(NC(=O)c3csc(-c4c(F)cccc4F)n3)cnn2C)CC[C@H]1N [Example 347]
(Q) Cn1ncc(NC(=O)c2csc(-c3c(F)ccc(C4CC4)c3F)n2)c1[C@@H]1CC[C@@H](N)[C@H](F)CO1 [Example 363]
Task item: // which entry reports the smaller Ki, P or Q ? Let me know the label of the one you choose.
Reply: P

(1) Cn1ncc(NC(=O)c2nc(-c3c(F)cccc3F)sc2N)c1[C@H]1C[C@@H](N)CCO1 (stereo in doubt) [Example 158]
(2) Cn1ncc(NC(=O)c2ccc(F)c(-c3c(F)cc(O)cc3F)n2)c1[C@@H]1CC[C@@H](N)[C@H](F)CO1 [Example 208]
(3) Cn1ncc(NC(=O)c2nc(-c3c(F)cccc3F)sc2N)c1[C@@H]1CC(F)[C@H](N)CCO1 (stereo partly drawn) [Example 150]
(4) Cn1ncc(NC(=O)c2csc(-c3c(F)cc(C(C)(F)F)cc3F)n2)c1[C@@H]1CC[C@@H](N)[C@H](F)CO1 [Example 394]
Task item: Please order the records by their reported Ki, lowest number first. Output spec: a listing of the labels in the requested order.
Reply: 2, 4, 1, 3
(2: 0.012 nM, 4: 0.018 nM, 1: 0.032 nM, 3: 0.105 nM)

(P) Cn1ncc(NC(=O)c2nc(-c3c(F)cccc3F)sc2N)c1[C@H]1CC[C@H](N)C(F)(F)CO1 [Example 152]
(Q) Cn1ncc(NC(=O)c2ccc(F)c(-c3cccc(F)c3F)n2)c1[C@@H]1CC[C@@H](N)[C@H](F)CO1 [Example 223]
(R) Cn1ncc(NC(=O)c2nc(-c3c(F)cccc3F)sc2N)c1C1CC(F)(F)CC(N)CO1 (stereo not drawn) [Example 122]
Task item: Sequence the entries by Ki, beginning with the highest number. Put the labels in the requested order and write them down.
Reply: Q, P, R
